# protocol-notes: Sulforhodamine B (SRB) cytotoxicity assay
# Assay type: cell-based, human
# reported-conditions: human, MRC-5 cells; log [concentration] μM 0.19

>  <compound>
COc1cccc2c1C(=O)c1c(O)c3c(c(O)c1C2=O)C[C@@](O)(C(=O)CO)C[C@@H]3O[C@H]1C[C@H](N)[C@H](O)[C@H](C)O1

>  <viability at 72 h, 1.55 µM / %>
50.4

$$$$

* * *

# protocol-notes: Sulforhodamine B (SRB) cytotoxicity assay
# reported-conditions: human, PC3 cells, Viability, without IR, log [concentration] μM 2.398

>  <compound>
Cn1c(=S)c2[nH]c(SCCN3CCOCC3)nc2n(C)c1=O

>  <viability at 72 h, 250 µM / %>
4.3

$$$$

* * *

# protocol-notes: Sulforhodamine B (SRB) cytotoxicity assay
# Format: cell-based, human
# reported-conditions: human, MRC-5 cells; log [concentration] μM 0.8

>  <compound>
COc1cccc2c1C(=O)c1c(O)c3c(c(O)c1C2=O)C[C@@](O)(C(=O)CO)C[C@@H]3O[C@H]1C[C@H](N)[C@H](O)[C@H](C)O1

>  <viability at 72 h, 6.31 µM [%]>
50

$$$$

* * *

# protocol-notes: Sulforhodamine B (SRB) cytotoxicity assay
# reported-conditions: human, A172 glioblastoma cells

>  <compound>
Cn1c(=S)c2[nH]c(SCCN3CCOCC3)nc2n(C)c1=O [JA2131]

>  <unit>
%

>  <viability at 72 h, 250 µM>
14.4

$$$$
>  <compound>
C[C@]1(c2nc3c(C(N)=O)cccc3[nH]2)CCCN1 [Veliparib]

>  <unit>
%

>  <viability at 72 h, 250 µM>
27.2

$$$$

* * *

# protocol-notes: Sulforhodamine B (SRB) cytotoxicity assay
# reported-conditions: human, PC3 cells, Viability, +IR 7.0 Gy, log [concentration] μM 0.290702

>  <compound>
O=C(c1cc(Cc2n[nH]c(=O)c3ccccc23)ccc1F)N1CCN(C(=O)C2CC2)CC1 [Olaparib, reference compound]

>  <unit>
%

>  <viability at 72 h, 1.95 µM>
100

$$$$

* * *

# test-system: Human PARG (Homo sapiens, UniProt Q86W56)
# Construct: The human PARG (hPARG) catalytic domain (residues 389–976) was cloned in pET28a (Novagen); His-tag (N); made in house; host or cells: E. coli Rosetta
# Sequence (Q86W56 389-976): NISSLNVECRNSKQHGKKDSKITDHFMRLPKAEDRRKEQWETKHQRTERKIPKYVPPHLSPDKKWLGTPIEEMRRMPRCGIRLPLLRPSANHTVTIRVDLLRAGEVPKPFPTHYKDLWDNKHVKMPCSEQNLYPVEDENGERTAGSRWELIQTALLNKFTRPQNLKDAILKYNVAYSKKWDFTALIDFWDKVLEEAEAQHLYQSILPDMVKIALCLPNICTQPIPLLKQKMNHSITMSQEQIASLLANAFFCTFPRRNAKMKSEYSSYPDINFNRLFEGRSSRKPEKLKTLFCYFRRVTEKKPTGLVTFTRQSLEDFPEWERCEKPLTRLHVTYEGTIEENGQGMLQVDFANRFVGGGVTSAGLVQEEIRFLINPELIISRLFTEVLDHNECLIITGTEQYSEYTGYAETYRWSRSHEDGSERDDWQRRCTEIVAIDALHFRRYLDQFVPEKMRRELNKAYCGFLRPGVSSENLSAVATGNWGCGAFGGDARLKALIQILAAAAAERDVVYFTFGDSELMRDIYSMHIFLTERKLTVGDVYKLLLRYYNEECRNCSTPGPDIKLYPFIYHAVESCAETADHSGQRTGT
# protocol-notes: Gel-based PARG activity assay
# Assay type: biochemical
# reported-conditions: [L] 0.390625 uM
Below: a set of entries, each annotated with reported inhibition at 0.390625 µM.

>  <compound>
Cn1c(=S)c2[nH]c(SCCN3CCOCC3)nc2n(C)c1=O

>  <inhibition at 0.390625 µM, %>
58.8

$$$$
>  <compound>
Cn1c(=O)c2[nH]c(SCCN3CCOCC3)nc2n(C)c1=S

>  <inhibition at 0.390625 µM, %>
27.3

$$$$
>  <compound>
Cn1c(=S)c2nc(SCCN3CCCC3)[nH]c2n(C)c1=O

>  <inhibition at 0.390625 µM, %>
34.9

$$$$
>  <compound>
Cn1c(=O)c2[nH]c(SCCN3CCOCC3)nc2n(C)c1=O

>  <inhibition at 0.390625 µM, %>
10.4

$$$$

* * *

Below: a set of entries, each annotated with reported viability at 72 h, 500 µM.
# protocol-notes: Sulforhodamine B (SRB) cytotoxicity assay
# reported-conditions: human, A172 glioblastoma cells
property-name: viability at 72 h, 500 µM (%)

>  <compound>
Cn1c(=S)c2[nH]c(SCCN3CCOCC3)nc2n(C)c1=O

>  <measurement>
13.5

$$$$
>  <compound>
C[C@]1(c2nc3c(C(N)=O)cccc3[nH]2)CCCN1

>  <measurement>
15.4

$$$$

* * *

# protocol-notes: Sulforhodamine B (SRB) cytotoxicity assay
# reported-conditions: human, A172 glioblastoma cells
property-name: viability at 72 h, 125 µM (%)

>  <compound>
C[C@]1(c2nc3c(C(N)=O)cccc3[nH]2)CCCN1

>  <property-name>
viability at 72 h, 125 µM

>  <measurement>
69.1

$$$$
>  <compound>
Cn1c(=S)c2[nH]c(SCCN3CCOCC3)nc2n(C)c1=O

>  <property-name>
viability at 72 h, 125 µM

>  <measurement>
16.6

$$$$

* * *

Below: a set of entries, each annotated with reported inhibition at 0.195312 µM.
# test-system: Human PARG (Homo sapiens)
# Construct: The human PARG (hPARG) catalytic domain (residues 389–976) was cloned in pET28a (Novagen); His-tag (N); made in house; host or cells: E. coli Rosetta
# protocol-notes: Gel-based PARG activity assay
# Format: biochemical
# reported-conditions: [L] 0.195312 uM

>  <compound>
Cn1c(=S)c2nc(SCCN3CCCC3)[nH]c2n(C)c1=O [JA2-4]

>  <inhibition at 0.195312 µM, %>
25.2

$$$$
>  <compound>
Cn1c(=S)c2[nH]c(SCCN3CCOCC3)nc2n(C)c1=O [JA2131]

>  <inhibition at 0.195312 µM, %>
34.6

$$$$
>  <compound>
Cn1c(=O)c2[nH]c(SCCN3CCOCC3)nc2n(C)c1=S [JA2-5]

>  <inhibition at 0.195312 µM, %>
28.3

$$$$
>  <compound>
Cn1c(=O)c2[nH]c(SCCN3CCOCC3)nc2n(C)c1=O [JA2120]

>  <inhibition at 0.195312 µM, %>
7.21

$$$$

* * *

# protocol-notes: Sulforhodamine B (SRB) cytotoxicity assay
# reported-conditions: human, A172 glioblastoma cells
Below: a set of entries, each annotated with reported viability at 72 h, 62.5 µM.
property-name: viability at 72 h, 62.5 µM (%)

>  <compound>
C[C@]1(c2nc3c(C(N)=O)cccc3[nH]2)CCCN1

>  <unit>
%

>  <measurement>
88.5

$$$$
>  <compound>
Cn1c(=S)c2[nH]c(SCCN3CCOCC3)nc2n(C)c1=O

>  <unit>
%

>  <measurement>
53.3

$$$$

* * *

# protocol-notes: Sulforhodamine B (SRB) cytotoxicity assay
# reported-conditions: human, PC3 cells, Viability, +IR 7.0 Gy, log [concentration] μM 3.30103
property-name: viability at 72 h, 2000 µM (%)

>  <compound>
O=C(c1cc(Cc2n[nH]c(=O)c3ccccc23)ccc1F)N1CCN(C(=O)C2CC2)CC1 [Olaparib, reference compound]

>  <property-name>
viability at 72 h, 2000 µM

>  <measurement>
10.8

$$$$

* * *

# protocol-notes: Sulforhodamine B (SRB) cytotoxicity assay
# Format: cell-based, human
# reported-conditions: human, MRC-5 cells; log [concentration] μM 0.59

>  <compound>
Cn1c(=S)c2[nH]c(SCCN3CCOCC3)nc2n(C)c1=O

>  <viability at 72 h, 3.89 µM>
99.3%

$$$$
>  <compound>
C[C@]1(c2nc3c(C(N)=O)cccc3[nH]2)CCCN1

>  <viability at 72 h, 3.89 µM>
94.5%

$$$$

* * *

# protocol-notes: Sulforhodamine B (SRB) cytotoxicity assay
# reported-conditions: human, PC3 cells, Viability, +IR 7.0 Gy, log [concentration] μM 2.39794

>  <compound>
O=C(c1cc(Cc2n[nH]c(=O)c3ccccc23)ccc1F)N1CCN(C(=O)C2CC2)CC1 [Olaparib, reference compound]

>  <unit>
%

>  <viability at 72 h, 250 µM>
16.5

$$$$

* * *

# protocol-notes: Sulforhodamine B (SRB) cytotoxicity assay
# reported-conditions: human, PC3 cells, Viability, -IR, log [concentration] μM 1.79588
property-name: viability at 72 h, 62.5 µM (%)

>  <compound>
O=C(c1cc(Cc2n[nH]c(=O)c3ccccc23)ccc1F)N1CCN(C(=O)C2CC2)CC1 [Olaparib, reference compound]

>  <unit>
%

>  <measurement>
34.7

$$$$

* * *

# protocol-notes: Sulforhodamine B (SRB) cytotoxicity assay
# reported-conditions: human, PC3 cells, Viability, without IR, log [concentration] μM 0.194
property-name: viability at 72 h, 1.56 µM (%)

>  <compound>
COc1cccc2c1C(=O)c1c(O)c3c(c(O)c1C2=O)C[C@@](O)(C(=O)CO)C[C@@H]3O[C@H]1C[C@H](N)[C@H](O)[C@H](C)O1

>  <property-name>
viability at 72 h, 1.56 µM

>  <measurement>
17.2

$$$$

* * *

# protocol-notes: Sulforhodamine B (SRB) cytotoxicity assay
# reported-conditions: human, PC3 cells, Viability, +IR 7 Gy, log [concentration] μM 1.495
property-name: viability at 72 h, 31.3 µM (%)

>  <compound>
Cn1c(=S)c2[nH]c(SCCN3CCOCC3)nc2n(C)c1=O

>  <property-name>
viability at 72 h, 31.3 µM

>  <measurement>
76.7

$$$$

* * *

# protocol-notes: Sulforhodamine B (SRB) cytotoxicity assay
# reported-conditions: human, PC3 cells, Viability, +IR 7.0 Gy, log [concentration] μM 3
property-name: viability at 72 h, 1000 µM (%)

>  <compound>
O=C(c1cc(Cc2n[nH]c(=O)c3ccccc23)ccc1F)N1CCN(C(=O)C2CC2)CC1 [Olaparib, reference compound]

>  <property-name>
viability at 72 h, 1000 µM

>  <measurement>
11.4

$$$$
